Biological target: Hexose transporter 1 (Plasmodium falciparum) (UniProt O97467)
Experiment: ST_JUDE_LEISH: Cytotoxicity at 2uM final concentration against transgenic Leishmania Mexicana promastigotes LmPfHT that are glucose transport deficient and complemented with the Plasmodium falciparum hexose transporter. Activity is measured by DNA content using SYBR green in vitro
Type: functional
ASSAY READOUT: inhibition (%)
Use % as the unit, but write only the number.

COc1ccc2nc(N3CCN(C(=O)OC(C)(C)C)CC3)nc(NCCCc3ccccc3)c2c1	23.1
O=C(NCc1cccc(Br)c1)c1ccc(CNC2CCN(Cc3ccccc3)CC2)cc1	1.61
CC(=O)Nc1ccc(S(=O)(=O)N2CCN(c3nc(NC4CCCC4)c4ccccc4n3)CC2)cc1	3.35
NC(=O)c1cccc(C(=O)Nc2cccc(-c3cccc(-c4nc5cc(F)ccc5[nH]4)c3)c2)c1	0.68
O=C(/C=C/c1ccc(Cl)c(Cl)c1)NCCCCCN1CCCC(C(=O)Nc2ccc(Cl)c(Cl)c2)C1 (stereo not given)	-1.19

### Prompt Report measured inhibition; entry is "CO/C(=C\C=C\c1cc2cc(Cl)ccc2[nH]1)C(=O)NCCCN1CCN(c2cc(Cl)ccc2OC)CC1"
### Response 1.33

### Prompt Write down inhibition measured for item "Cc1cccc(C(=O)Nc2ccnc(N3CCC(N(C)Cc4cccc(O)c4)CC3)c2)c1"
### Response 1.88

### Prompt Give me measured inhibition, please, for this compound: "O=C(Nc1cccc(CN2CCCN(Cc3cccc(Cl)c3)CC2)c1)c1ccc(Br)cc1"
### Response 7.39

###

Molecular target: Solute carrier family 2, facilitated glucose transporter member 1 (Homo sapiens) (UniProt P11166)
Sequence (P11166 whole entry): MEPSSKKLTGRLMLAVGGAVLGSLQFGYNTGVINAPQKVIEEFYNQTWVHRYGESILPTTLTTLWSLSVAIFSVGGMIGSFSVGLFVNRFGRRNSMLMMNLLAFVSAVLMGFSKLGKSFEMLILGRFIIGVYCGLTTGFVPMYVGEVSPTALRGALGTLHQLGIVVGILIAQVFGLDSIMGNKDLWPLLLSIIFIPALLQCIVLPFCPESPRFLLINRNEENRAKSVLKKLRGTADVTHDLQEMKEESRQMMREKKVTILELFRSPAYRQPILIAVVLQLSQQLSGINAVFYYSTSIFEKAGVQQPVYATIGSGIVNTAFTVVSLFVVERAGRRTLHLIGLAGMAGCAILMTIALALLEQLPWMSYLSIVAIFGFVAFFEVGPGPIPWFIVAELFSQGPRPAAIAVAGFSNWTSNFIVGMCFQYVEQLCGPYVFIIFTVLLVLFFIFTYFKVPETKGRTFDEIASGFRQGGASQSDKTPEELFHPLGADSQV
Test: ST_JUDE_LEISH: Cytotoxicity at 2uM final concentration against transgenic Leishmania Mexicana promastigotes LmGLUT1 that are glucose transport deficient and complemented with the human glucose transporter GLUT1. Activity is measured by DNA content using SYBR green in vitro
Assay type: functional
Listing of entries alongside the reported inhibition.
Please state the figure in %; there is no need to write the unit.

N#Cc1ccc2[nH]cc(CN3CCC4(CC3)CN(CCNCc3ccccc3)C(=O)O4)c2c1	4.35
CCC(C)C#Cc1c(C)nc(N)nc1N (stereo not given)	0.18
COc1cc(NC(=O)NC(CCN2CCC3(CCc4ccccc43)CC2)c2ccc(Cl)c(Cl)c2)cc(OC)c1OC (stereo not given)	0.41
CNS(=O)(=O)Cc1ccc(Nc2nccc(Nc3cccc4c3cnn4C(=O)Nc3ccccc3)n2)cc1	4.38
COc1ccc2nc3cc(Cl)ccc3c(NCCCCNc3c4ccc(Cl)cc4nc4ccc(OC)cc34)c2c1	11.8
NCc1ccc(CNCc2cccc(-c3ccc(-c4nc5cc(C(F)(F)F)ccc5[nH]4)cc3)c2)cc1	2.92

### Prompt Tell me measured inhibition for Cc1cc(C(=O)CN2C(=O)NC3(CCCc4ccccc43)C2=O)c(C)n1Cc1ccco1 (stereo not given) please.
### Response 1.28

### Prompt Give reported inhibition value for CCCCCCNC(=O)C1Cc2c([nH]c3cc(Cl)ccc23)C2(CCN(CCC)CC2)N1 (stereo not given)
### Response 3.28

### Prompt Given the compound "Cc1ccc(Nc2ccnc(Nc3ccc(F)c(Cl)c3)n2)cc1O" , write its reported inhibition.
### Response 6.74

### Prompt Please give measured inhibition of the following entry: "Cc1cc(=NN=Cc2ccccc2F)c2cccc(C)c2[nH]1"
### Response 3.9

### Prompt Recall and state the measured inhibition for "CCCOc1ccccc1C(=O)Nc1nonc1-c1ccc(OCC)c(OCC)c1" .
### Response 0.74
